All values here come from PubChem BioAssay.

I'd appreciate it if you could supply composite z-score values for the items below.
biological target: Follistatin-related protein 3 (Homo sapiens) (UniProt O95633); assay: FSTL3 binders on small-molecule microarrays, primary screen, biochemical, small-molecule microarray, 635 nm fluorescence (AID 1105); settings: FSTL3 binding, higher = more signal;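 note: score merges emission near 667 nm and signal to noise per printed spot across three slides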
Sequence (O95633 whole entry, looked up): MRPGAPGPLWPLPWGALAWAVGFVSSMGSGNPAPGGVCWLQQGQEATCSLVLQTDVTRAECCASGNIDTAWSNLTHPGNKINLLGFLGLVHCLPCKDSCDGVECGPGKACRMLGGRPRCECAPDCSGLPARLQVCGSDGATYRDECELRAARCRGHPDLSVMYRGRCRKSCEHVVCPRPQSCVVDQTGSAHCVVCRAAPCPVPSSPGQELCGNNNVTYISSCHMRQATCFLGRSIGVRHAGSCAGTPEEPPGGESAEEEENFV
Numbers only.

CHEMICAL_STRING	composite z-score
Cc1ccc(S[C@]2(C(=O)O)CC(=O)N(Cc3cc(C(F)(F)F)cc(C(F)(F)F)c3)[C@@H]2c2ccc(CO)cc2)cc1	-1.92
C=C(/C(=C/C[C@@H](OC(C)=O)c1cccc(OCCO)c1)c1cc(C(=O)OC)ccc1OC)C(C)C	0.533
CN(C)CCCNC(=O)[C@@]1(C)c2ccccc2C(=O)N(Cc2ccccc2)[C@H]1c1ccc(CO)cc1	-0.456
C=C(CCCC)/C(=C/C[C@@H](OC(=O)c1ccncc1)c1ccccc1OCCO)c1cnc2ccccc2c1	1.33
CCOC(=O)C1=CC[C@@H](c2ccc(OCc3ccccc3)c(OC)c2)N(S(=O)(=O)c2ccc(C)cc2)[C@H]1c1ccc(SC)cc1	1.12

# batch size: 6; output composite z-score per entry
1. COC(=O)[C@@]1(Cc2ccc(F)cc2)[C@H]2c3cc(C(=O)N(C)C)n(CCc4ccc(O)c(OC)c4)c3C[C@H]2CN1C(=O)c1ccccc1
2. COC(=O)c1c(CC[C@@H](CO)NC(=O)N2CCC[C@H]2Cn2cc(Cc3ccccc3)nn2)oc(C(C)=O)c1C(=O)OC
3. CC(=O)NCCCC[C@@H]1NC(=O)[C@H]2C[C@@H](C(=O)NCCCC[N+](C)(C)C)[C@@H](c3cccc(OCCO)c3)N2C1=O
4. CN(C)C(=O)[C@]1(CCS(=O)(=O)c2ccccc2)N=C(c2ccc(OCCCO)cc2)O[C@@H]1c1ccccc1N=[N+]=[N-]
5. COC(=O)c1c(CC[C@@H](CO)NC(=O)N[C@H](Cn2cc(C3(O)CCCCC3)nn2)C(C)C)oc(C(C)=O)c1C(=O)OC
6. C=CCOC(=O)[C@H]1[C@@H]2C(=O)O[C@@H](c3ccccc3)[C@@H](c3ccccc3)N2[C@@H](c2ccc(OCCOC(=O)[C@@H]3C[C@@H]4C(=O)N5CCC[C@H]5C(=O)N4[C@@H]3c3ccc(O)cc3)cc2)[C@]12C(=O)Nc1ccc(I)cc12

0.62
0.92
1.54
1.45
1.1
0.594

* * *

assay: small-molecule binders of probe aInhba, primary screen, biochemical, small-molecule microarray, 635/667 nm fluorescence (AID 1148); settings: higher = more signal;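 note: score merges 667nm spot fluorescence with signal-to-noise for antibody binding to printed compounds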
Param threshold (-0.1) applies to composite z-score; output y when value >= threshold, n when value < threshold.

Please review the entries below; each comes with its answer.
COMPOUND	CLASS_ASSIGNMENT
COCCOC(=O)N1C(=O)[C@@]2(c3cc(C#CC4=CCCCC4)ccc31)[C@H](c1ccc(OCCO)cc1)N1[C@H](c3ccccc3)[C@H](c3ccccc3)OC(=O)[C@H]1[C@@H]2C(=O)NC[C@H](O)c1ccccc1	y
O=C1O[C@H](c2ccccc2)[C@H](c2ccccc2)N2[C@H]1[C@@H](C(=O)NC[C@H](O)c1ccccc1)[C@]1(C(=O)Nc3ccc(C#CCCO)cc31)[C@H]2c1ccc(OCCO)cc1	y
CC[C@H]1C2=C3C(CC[C@H]4C(OCc5ccc(F)cc5C(F)(F)F)OC[C@](C)([C@@H]34)N(C(=O)OC(C)(C)C)C2)C(COC)C1COC (stereo partly drawn)	y
CN1C(=O)C2C=CC(C(O)c3cccc4ccccc34)N(N3CCCCC3)C2C1=O (stereo not drawn)	y

Please tell me: is the compound `C=C(COC)C(=O)CC[C@@H](OC(=O)c1cccnc1)c1ccc(OCCO)cc1` at or over -0.1 in terms of composite z-score? y

Please tell me: is the compound OCC1CC(c2ccccc2)=NO1 (stereo not drawn) at or over -0.1 in terms of composite z-score? y

Please tell me: is the compound `CN(C)C(=O)[C@@]1(Cc2ccccc2CN=[N+]=[N-])N=C(c2ccc(OCCCO)cc2)O[C@H]1c1ccccc1CN=[N+]=[N-]` at or over -0.1 in terms of composite z-score? y

Please tell me: is the compound O=C1C2C=CC(C(O)c3ccccc3)N(Nc3ccccc3F)C2C(=O)N1c1ccccc1 (stereo not drawn) at or over -0.1 in terms of composite z-score? n

Please tell me: is the compound `CC(C)N1C(=O)C[C@@](C(=O)NCCCN(C)C)(c2ccc([N+](=O)[O-])cc2)[C@H]1c1ccc(CO)cc1` at or over -0.1 in terms of composite z-score? n
